# assay-info: recombinant barcode read abundance after kanamycin selection (control-corrected) (log10(CPM+1)); higher = more efficient recombination; sequences stand for … in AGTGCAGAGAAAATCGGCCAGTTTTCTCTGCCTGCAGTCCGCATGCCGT…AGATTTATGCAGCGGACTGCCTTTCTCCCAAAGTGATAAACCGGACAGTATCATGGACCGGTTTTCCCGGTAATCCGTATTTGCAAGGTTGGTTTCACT; site = the 11-nt target
Below, each of the sequences is paired with its reported recombinant barcode read abundance (log10) value.
measured-property: recombinant barcode read abundance (log10)

> print(dat)
                               item.sequence  reported
 1  AGGTCCTCTTGGGTTCTAACCTGTTGCAT (site AGGTCCTCTAC)    0.0867
 2  TTAACTACTTGGGTTCTAACCTGTTGCTC (site TTAACTACTAA)    0.0118
 3  ACGAAGGCTTGGGTTCTAACCTGTTGCCG (site ACGAAGGCTAG)     0.182
 4  GAATCTTCTTGGGTTCTAACCTGTTGCTT (site GAATCTTCTAA)    0.0983
 5  ATGCTATCTTGGGTTCTAACCTGTTGCAG (site ATGCTATCTCT)     0.678
 6  TAACCTACTTGGGTTCTAACCTGTTGCCT (site TAACCTTCTAG)    0.0774
 7  GAGGACTCTTGGGTTCTAACCTGTTGCCT (site GAGGACTCTGG)      1.29
 8  TATCGGCCTTGGGTTCTAACCTGTTGCCT (site TACCGGCCTAG)    0.0568
 9  ATATGGGCTTGGGTTCTAACCTGTTGCCG (site ATATGCGCTCG)    0.0627
10  TCCGCTACTTGGGTTCTAACCTGTTGCCT (site TCCGCTACTAG)    0.0438
11  TCTAAGTCTTGGGTTCTAACCTGTTGCCA (site TCTAAGTCTAG)     0.045
12  ATCCCACCTTGGGTTCTAACCTGTTGCGG (site ATACTACCTCC)    0.0321
13  ACTAGTCCTTGGGTTCTAACCTGTTGCAT (site ACTAGTCCTAC)    0.0726
14  ATGTTAGCTTGGGTTCTAACCTGTTGCCT (site ATGTTAGCTAG)      1.65
15  GTTCCGGCTTGGGTTCTAACCTGTTGCCT (site GTTACGGCTAG)     0.139
16  TATGTACCTTGGGTTCTAACCTGTTGCCT (site TATGTACCTAG)      1.46
17  ATGAACACTTGGGTTCTAACCTGTTGCTG (site TAATGGCCTTC)    0.0343
18  CGCTAGACTTGGGTTCTAACCTGTTGCCT (site CGCTTGACTAG)     0.052
19  AAGGGCCCTTGGGTTCTAACCTGTTGCCT (site TAGGGCCCTAG)      2.24
20  GTTACCGCTTGGGTTCTAACCTGTTGCCT (site GTAACCGCTAG)     0.602
21  AGACTTCCTTGGGTTCTAACCTGTTGCTT (site AGACCTCCTAA)     0.121

----------
# assay-info: recombinant UMI read abundance after kanamycin selection (control-corrected) (log10(CPM+1)); higher = more efficient recombination; extreme values may be limits of the assay; sequences stand for … in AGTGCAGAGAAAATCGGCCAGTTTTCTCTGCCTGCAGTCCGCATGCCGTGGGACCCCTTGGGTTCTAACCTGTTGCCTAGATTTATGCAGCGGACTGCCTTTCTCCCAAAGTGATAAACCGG…AGGTTGGTTTCACT; site = the 11-nt donor
measured-property: recombinant UMI read abundance (log10)

> print(dat)
                              item.sequence                       measured.property  reported
1  AATTGGACATGGACCGGTTTTCCCGGTAATCCGTATTTGAC (site AATTGGACTGT)  recombinant UMI read abundance (log10)      1.21
2  ACCAATTCATGGACCGGTTTTCCCGGTAATCCGTATTTGCT (site ACCAATTCTAG)  recombinant UMI read abundance (log10)      2.42
3  CGATCATCATGGACCGGTTTTCCCGGTAATCCGTATTTGCC (site CGATCATCTGG)  recombinant UMI read abundance (log10)         0
4  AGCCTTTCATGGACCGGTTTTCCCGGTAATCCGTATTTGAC (site AGCCTTTCTGC)  recombinant UMI read abundance (log10)         0
5  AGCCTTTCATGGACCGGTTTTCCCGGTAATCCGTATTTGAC (site AGCTTTTCTGT)  recombinant UMI read abundance (log10)         0
6  TAGTAGTCATGGACCGGTTTTCCCGGTAATCCGTATTTGGG (site TAGTAGTCTCC)  recombinant UMI read abundance (log10)     0.369
7  CCTAGGTCATGGACCGGTTTTCCCGGTAATCCGTATTTGCC (site CCTAGGTCTGG)  recombinant UMI read abundance (log10)         0
8  AAATTTGCATGGACCGGTTTTCCCGGTAATCCGTATTTGGC (site AAATTTGCTGC)  recombinant UMI read abundance (log10)         0
9  CACTCCCCATGGACCGGTTTTCCCGGTAATCCGTATTTGAC (site CACTCCCCTGT)  recombinant UMI read abundance (log10)      1.54

----------
# assay-info: recombinant barcode read abundance after kanamycin selection (control-corrected) (log10(CPM+1)); higher = more efficient recombination; sequences stand for … in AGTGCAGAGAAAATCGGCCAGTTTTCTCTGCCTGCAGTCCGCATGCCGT…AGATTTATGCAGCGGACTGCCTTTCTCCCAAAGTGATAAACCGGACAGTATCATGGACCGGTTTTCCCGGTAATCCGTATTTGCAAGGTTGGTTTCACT; site = the 11-nt target
Cut-off 0.1 on recombinant barcode read abundance (log10), inclusive. At or above means rule met; below means rule not met.

> print(dat)
                               item.sequence         class
 1  TCACAGCCTTGGGTTCTAACCTGTTGCTG (site TCACAGCCTCA)      rule met
 2  GGGGTTCCTTGGGTTCTAACCTGTTGCAT (site GGGGTTCCTAA)      rule met
 3  CGCTCGACTTGGGTTCTAACCTGTTGCCT (site CGCTTGACTAG)  rule not met
 4  TTGGTTCCTTGGGTTCTAACCTGTTGCCT (site TTGGTTCCTAG)      rule met
 5  TTAAGTCCTTGGGTTCTAACCTGTTGCCT (site TTCAGTCCTAT)      rule met
 6  AGGAGCCCTTGGGTTCTAACCTGTTGCTT (site AGGAGCCCTTA)      rule met
 7  CTGCTCCCTTGGGTTCTAACCTGTTGCGG (site CTGTTCCCTCC)  rule not met
 8  CTAACCGCTTGGGTTCTAACCTGTTGCCT (site CCAACCGCTAG)      rule met
 9  CTTCGAACTTGGGTTCTAACCTGTTGCAT (site CTTCGAACTAT)      rule met
10  CTAAGGGCTTGGGTTCTAACCTGTTGCCA (site CTAAGAGCTTG)      rule met

----------
# assay-info: recombinant UMI read abundance after kanamycin selection (control-corrected) (log10(CPM+1)); higher = more efficient recombination; extreme values may be limits of the assay; sequences stand for … in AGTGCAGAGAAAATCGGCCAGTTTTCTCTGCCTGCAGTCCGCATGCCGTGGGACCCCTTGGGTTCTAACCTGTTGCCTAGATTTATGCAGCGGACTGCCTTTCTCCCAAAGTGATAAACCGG…AGGTTGGTTTCACT; site = the 11-nt donor
Recorded recombinant UMI read abundance (log10) split into classes LOW = under 0.02, MEDIUM = from 0.02 up to 1, HIGH = 1 and over

> print(dat)
                               item.sequence   class
 1  TTGACCACATGGACCGGTTTTCCCGGTAATCCGTATTTGCC (site TTGACCACTGG)    HIGH
 2  CTGCCTACATGGACCGGTTTTCCCGGTAATCCGTATTTGAG (site CTGCCTACTCT)    HIGH
 3  GGCAACCCATGGACCGGTTTTCCCGGTAATCCGTATTTGTT (site GGCCACCCTAA)     LOW
 4  GCAGACCCATGGACCGGTTTTCCCGGTAATCCGTATTTGGG (site GCAGACCCTCC)     LOW
 5  TAGAGTACATGGACCGGTTTTCCCGGTAATCCGTATTTGCA (site TAGAGTACTTG)    HIGH
 6  AACTAGACATGGACCGGTTTTCCCGGTAATCCGTATTTGGG (site ATCTAGACTCC)  MEDIUM
 7  CGGACAGCATGGACCGGTTTTCCCGGTAATCCGTATTTGCT (site CGGACAGCTAG)    HIGH
 8  ATTTGTTCATGGACCGGTTTTCCCGGTAATCCGTATTTGGA (site ATTTGTTCTTC)    HIGH
 9  GAGCTAGCATGGACCGGTTTTCCCGGTAATCCGTATTTGAA (site TAGCTAGCTTT)    HIGH
10  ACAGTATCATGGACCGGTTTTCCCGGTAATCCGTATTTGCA (site ACAGTATCTCA)  MEDIUM
11  CAATCCTCATGGACCGGTTTTCCCGGTAATCCGTATTTGCC (site CATTCCTCTGG)  MEDIUM
12  CAGACCGCATGGACCGGTTTTCCCGGTAATCCGTATTTGAT (site CAGACCGCTAT)    HIGH
13  CGCTTTCCATGGACCGGTTTTCCCGGTAATCCGTATTTGGT (site CGCTTTCCTAC)     LOW
14  GCCGCCCCATGGACCGGTTTTCCCGGTAATCCGTATTTGGC (site GCCGCCCCTGC)     LOW
15  CCATAGCCATGGACCGGTTTTCCCGGTAATCCGTATTTGCC (site CCATAGCCTGG)     LOW
16  TCATAGACATGGACCGGTTTTCCCGGTAATCCGTATTTGCG (site TCAGAGACTCG)     LOW
17  CGGTCGACATGGACCGGTTTTCCCGGTAATCCGTATTTGGA (site CGGTCGACTTC)  MEDIUM
18  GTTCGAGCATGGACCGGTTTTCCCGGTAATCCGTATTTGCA (site GTGCGAGCTTG)  MEDIUM
